Assay system Stromelysin-1 (Homo sapiens); read-out recorded as pIC50.
Schema: pIC50 number; meaning minus log10 of the concentration expressed in molar units.

Quick one: pIC50 of O=C1N/C(=N/c2nsc3ccccc23)S/C1=C\c1ccc(Cl)cc1 ?
4.19

Would you mind doing COc1cc(/C=C2\S/C(=N\c3nsc4ccccc34)NC2=O)ccc1O as well?
5.50

----------
Would you kindly list Activity for each of these compounds?
Assay: Antioxidant activity assessed as AAPH radical scavenging activity assessed as Trolox equivalents by ORAC assay
Assay type: physicochemical
Reply with just the number.

Item COc1cc(/C=C2\S/C(=N\c3nsc4ccccc34)NC2=O)ccc1O has what recorded Activity?
1.35

What do you get for O=C1N/C(=N/c2nsc3ccccc23)S/C1=C/c1cccc(O)c1 ?
1.2

Moving on to the next compound: O=C1N/C(=N/c2nsc3ccccc23)S/C1=C\c1ccc(Cl)cc1
1.64

What do you have for O=C1N/C(=N/c2nsc3ccccc23)S/C1=C\c1ccccc1Cl ?
0.45

Check O=C1N/C(=N/c2nsc3ccccc23)S/C1=C/c1ccccc1O too.
0.8
